# conditions: 328.15 K; 101.33 kPa; Liquid; Vibrating tube method
Known mass density of a selection of molecules
Lab book: enter the figure in kg/m3, no units written.

Example cases with answers are listed next.
CC(C)C[P+](C)(CC(C)C)CC(C)C.Cc1ccc(S(=O)(=O)[O-])cc1 [triisobutylmethylphosphonium p-toluenesulfonate] : 1050
CCCC[n+]1ccc(C)cc1.F[B-](F)(F)F [1-butyl-4-methylpyridinium tetrafluoroborate] : 1169
COS(=O)(=O)[O-].Cn1cc[n+](C)c1 [1,3-dimethylimidazolium methylsulfate] : 1305
CCCCCCCC[n+]1ccn(C)c1.[Cl-] [1-methyl-3-octylimidazolium chloride] : 992

### Prompt Could you share which mass density value was measured for CCCCCCCC[n+]1ccn(C)c1.F[P-](F)(F)(F)(F)F [1-octyl-3-methylimidazolium hexafluorophosphate] ?
### Response 1211

### Prompt Next: CCCCn1cc[n+](C)c1.O=S(=O)([O-])O [1-butyl-3-methylimidazolium hydrogen sulfate]
### Response 1204

### Prompt Next: CCCCn1cc[n+](C)c1.F[P-](F)(F)(F)(F)F [1-butyl-3-methylimidazolium hexafluorophosphate]
### Response 1343

### Prompt Next: CCCCCCn1cc[n+](C)c1.F[P-](F)(F)(F)(F)F [1-hexyl-3-methylimidazolium hexafluorophosphate]
### Response 1268

### Prompt Next: CCn1cc[n+](C)c1.COS(=O)(=O)[O-] [1-ethyl-3-methylimidazolium methylsulfate]
### Response 1272

* * *

# run_description: refractive index (Na D-line) (dimensionless)
# conditions: 333.15 K; 101.33 kPa; Liquid; Standard Abbe refractometry
Known refractive index of a selection of molecules
Please state the value as a number alone, without comment.

CCn1cc[n+](C)c1.COS(=O)(=O)[O-] [1-ethyl-3-methylimidazolium methylsulfate] : 1.4698
COS(=O)(=O)[O-].Cn1cc[n+](C)c1 [1,3-dimethylimidazolium methylsulfate] : 1.4771
CCCCn1cc[n+](C)c1.O=S(=O)([O-])O [1-butyl-3-methylimidazolium hydrogen sulfate] : 1.4721

### Prompt Could you share which refractive index value was measured for CCCCCCn1cc[n+](C)c1.F[P-](F)(F)(F)(F)F [1-hexyl-3-methylimidazolium hexafluorophosphate] ?
### Response 1.4075

### Prompt Next: CCCCCCCC[n+]1ccn(C)c1.[Cl-] [1-methyl-3-octylimidazolium chloride]
### Response 1.5029

### Prompt Next: CCCCn1cc[n+](C)c1.F[P-](F)(F)(F)(F)F [1-butyl-3-methylimidazolium hexafluorophosphate]
### Response 1.4042

### Prompt Next: CCCCCCCC[n+]1ccn(C)c1.F[P-](F)(F)(F)(F)F [1-octyl-3-methylimidazolium hexafluorophosphate]
### Response 1.4167

### Prompt Next: CCCC[n+]1ccc(C)cc1.F[B-](F)(F)F [1-butyl-4-methylpyridinium tetrafluoroborate]
### Response 1.4463

### Prompt Next: CC(C)C[P+](C)(CC(C)C)CC(C)C.Cc1ccc(S(=O)(=O)[O-])cc1 [triisobutylmethylphosphonium p-toluenesulfonate]
### Response 1.5119

* * *

Known mass density of a selection of compounds
# conditions: 323.15 K; 101.33 kPa; Liquid; Vibrating tube method
Lab book: enter the figure in kg/m3, no units written.

Example cases with answers are listed next.
CCCCn1cc[n+](C)c1.F[P-](F)(F)(F)(F)F [1-butyl-3-methylimidazolium hexafluorophosphate] : 1347
CCCCCCn1cc[n+](C)c1.F[P-](F)(F)(F)(F)F [1-hexyl-3-methylimidazolium hexafluorophosphate] : 1272
CC(C)C[P+](C)(CC(C)C)CC(C)C.Cc1ccc(S(=O)(=O)[O-])cc1 [triisobutylmethylphosphonium p-toluenesulfonate] : 1053
CCCCn1cc[n+](C)c1.O=S(=O)([O-])O [1-butyl-3-methylimidazolium hydrogen sulfate] : 1208
CCCCCCCC[n+]1ccn(C)c1.F[P-](F)(F)(F)(F)F [1-octyl-3-methylimidazolium hexafluorophosphate] : 1215

### Prompt Could you share which mass density value was measured for CCn1cc[n+](C)c1.COS(=O)(=O)[O-] [1-ethyl-3-methylimidazolium methylsulfate] ?
### Response 1275

### Prompt Next: CCCCCCCC[n+]1ccn(C)c1.[Cl-] [1-methyl-3-octylimidazolium chloride]
### Response 995

### Prompt Next: CCCC[n+]1ccc(C)cc1.F[B-](F)(F)F [1-butyl-4-methylpyridinium tetrafluoroborate]
### Response 1173

### Prompt Next: COS(=O)(=O)[O-].Cn1cc[n+](C)c1 [1,3-dimethylimidazolium methylsulfate]
### Response 1308
